Target: rGAPDH (Oryctolagus cuniculus)
Sequence (P46406 2-333 limits assumed): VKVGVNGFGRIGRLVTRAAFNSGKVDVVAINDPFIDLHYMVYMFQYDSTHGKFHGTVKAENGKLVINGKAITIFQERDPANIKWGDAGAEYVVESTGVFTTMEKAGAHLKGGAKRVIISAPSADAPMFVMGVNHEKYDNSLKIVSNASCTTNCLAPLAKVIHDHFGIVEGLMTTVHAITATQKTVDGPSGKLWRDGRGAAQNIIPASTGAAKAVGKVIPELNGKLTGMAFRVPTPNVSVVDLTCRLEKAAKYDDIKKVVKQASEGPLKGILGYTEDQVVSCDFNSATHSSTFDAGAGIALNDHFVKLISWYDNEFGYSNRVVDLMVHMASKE
Test: Kinetics of heme transfer from GAPDH to apo-myoglobin, koff
Type: binding, rabbit
Details: read-out: Kd (koff/kon) (M), from fast koff; Wild type rGAPDH
Readout: Kd (M)
Give the value in M but do not write M after it.

Observed Kd, rGAPDH (Oryctolagus cuniculus), "C=CC1=C(C)c2cc3[n-]c(cc4[n-]c(cc5nc(cc1n2)C(C)=C5C=C)c(C)c4CCC(=O)O)c(CCC(=O)O)c3C.[Cl-].[Fe+3]" : 3.9e-07

----------
Target: rGAPDH (Oryctolagus cuniculus)
Assay: Spectrophotometric titration of GAPDH with hemin
Type: binding, rabbit
Details: read-out: dissociation constant (Kd), direct titration; 10 µM rGAPDH, hemin 0–35 µM, 100 mM Tris pH 7.4, 10% glycerol
Readout: Kd (nM)
Reply with just the number (in nM).

Summary: "C=CC1=C(C)c2cc3[n-]c(cc4[n-]c(cc5nc(cc1n2)C(C)=C5C=C)c(C)c4CCC(=O)O)c(CCC(=O)O)c3C.[Cl-].[Fe+3]" , rGAPDH (Oryctolagus cuniculus), Kd = 24

Data origin: paper PMC3549054
